Source: patent EP4763839A1

- procedure_details: Pharmacokinetic detection in rats after intravenous injection and oral administration
- Assay type: in vivo, Sprague-Dawley (SD) rats
- test_settings: in vivo; rat, oral administration, 10 mg/kg
metric: Cmax

Completed entries (count: 4):
Cn1c(=O)n(C2CCC(=O)NC2=O)c2cccc(C#CCOC3CCN(CC4CCC(n5cc(NC(=O)c6cnn7ccc(N8CC9CC8CO9)nc67)c(C(F)F)n5)CC4)CC3)c21 (centres unmarked) [Control compound 1, reference compound] | 98 ng/mL
NC(=O)c1nn(-c2ccc(N3CCN(CC4CCN(c5ccc(NC6CCC(=O)NC6=O)cc5F)CC4)CC3)cc2)cc1NC(=O)c1cccc(C(F)(F)F)n1 (centres unmarked) [Compound A195] | 1250 ng/mL
NC(=O)c1nn(-c2ccc(N3CCN(CC4CCN(c5ccc6c(c5)CN(C5CCC(=O)NC5=O)C6=O)CC4)CC3)cc2)cc1NC(=O)c1cccc(C(F)(F)F)n1 (centres unmarked) [Compound A169] | 408 ng/mL
NC(=O)c1nn(-c2ccc(N3CCN(CCN4CCN(c5ccc6c(c5)C(=O)N(C5CCC(=O)NC5=O)C6=O)CC4)CC3)cc2)cc1NC(=O)c1cccc(C(F)(F)F)n1 (centres unmarked) [Compound A173] | 107 ng/mL

Please turn your attention to the following entry.
Data point: Cn1c(=O)n(C2CCC(=O)NC2=O)c2cccc(N3CCC(CN4CCN(c5ccc(-n6cc(NC(=O)c7cccc(C(F)(F)F)n7)c(C(N)=O)n6)cc5)CC4)CC3)c21 (centres unmarked) [Compound A178] ; Cmax = 593 ng/mL

###

- target_entity: IRAK4 (Homo sapiens, UniProt Q9NWZ3)
- Sequence (Q9NWZ3 whole entry): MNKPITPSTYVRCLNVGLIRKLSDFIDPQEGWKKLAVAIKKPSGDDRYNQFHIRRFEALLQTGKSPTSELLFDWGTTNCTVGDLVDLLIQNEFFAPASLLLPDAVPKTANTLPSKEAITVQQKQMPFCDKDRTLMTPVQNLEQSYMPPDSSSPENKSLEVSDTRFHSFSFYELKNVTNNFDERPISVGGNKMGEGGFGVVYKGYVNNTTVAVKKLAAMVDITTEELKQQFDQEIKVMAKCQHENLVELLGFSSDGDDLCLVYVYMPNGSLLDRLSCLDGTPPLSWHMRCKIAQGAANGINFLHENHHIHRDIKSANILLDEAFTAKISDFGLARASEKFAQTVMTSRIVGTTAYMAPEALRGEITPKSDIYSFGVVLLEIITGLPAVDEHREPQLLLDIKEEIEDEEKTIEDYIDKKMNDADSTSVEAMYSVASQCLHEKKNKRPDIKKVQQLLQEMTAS
- procedure_details: Degradation of IRAK4 in THP1 cells, Western blot
- Type: cell-based
- Parameters: Degradation of IRAK4 in THP1 by compound; host or cells: THP-1
- test_settings: maximum degradation rate, THP-1 cells, 24 hours of incubation; read-out: Dmax
metric: Dmax

Cn1c(=O)n(C2CCC(=O)NC2=O)c2cccc(N3CCC4(CC3)CC(NCc3ccc(-n5cc(NC(=O)c6cccc(-c7ccn[nH]7)n6)c(S(N)(=O)=O)n5)cc3)C4)c21 (stereo not shown) | > 60%

Data point: Cn1c(=O)n(C2CCC(=O)NC2=O)c2cccc(NCCN3CC4CN(C(=O)c5ccc(-n6cc(NC(=O)c7cccc(-c8ccn[nH]8)n7)c(S(N)(=O)=O)n6)cc5)CC4C3)c21 (stereo not shown) ; Dmax = > 60%

Data point: NC(=O)c1nn(-c2ccc(N3CCN(C4CCN(c5ccc(NC6CCC(=O)NC6=O)cc5F)CC4)CC3)cc2)cc1NC(=O)c1cccc(C(F)(F)F)n1 (stereo not shown) ; Dmax = > 60%

###

- target_entity: IRAK4 (Homo sapiens, UniProt Q9NWZ3)
- procedure_details: Assay for inhibitory effect of compound on IRAK4 kinase activity (KinEASE-STK S1 HTRF kit)
- Format: biochemical
- test_settings: kinase 8 nM, ATP 80 µM, 37°C 90 minutes; read-out: IRAK4 HTRF IC50
pIC50: −log10 of the molar value.
metric: pIC50

NS(=O)(=O)c1nn(-c2ccccc2)cc1NC(=O)c1cccc(-n2ccnc2)n1 [Compound A261] | > 7.00
O=C(Nc1cn(C2CNC2)nc1C(=O)NC1CC1)c1cccc(-c2ccn[nH]2)n1 [Compound A253] | > 7.00
NS(=O)(=O)c1nn(-c2ccccc2)cc1NC(=O)c1cccc(-c2cc[nH]c2)n1 [Compound A95] | > 7.00
CC(=O)c1nn(-c2ccccc2)cc1NC(=O)c1cccc(-c2ccn[nH]2)n1 [Compound A241] | > 7.00
COc1nn(C2CCC2)cc1NC(=O)c1cnn2ccc(-c3cn[nH]c3)nc12 [Compound A289] | > 7.00
O=C(Nc1cn(-c2ccccc2)nc1C(=O)NC1CC1)c1cccc(-c2ccn[nH]2)n1 [Compound A250] | > 7.00

Data point: CS(=N)(=O)c1nn(-c2ccccc2)cc1NC(=O)c1cccc(-c2c[nH]cn2)n1 (stereo not shown) [Compound A98] ; pIC50 = 6.00 to 7.00

Data point: NC(=O)c1nn(C2CCC2)cc1NC(=O)c1cnn2ccc(-c3ccn[nH]3)nc12 [Compound A292] ; pIC50 = > 7.00

Data point: O=C(Nc1cn(C2CCNC2)nc1C(=O)NC1CC1)c1cccc(-c2ccn[nH]2)n1 (stereo not shown) [Compound A254] ; pIC50 = 6.00 to 7.00

Data point: CC(C)(O)c1nn(C2CCCCC2)cc1NC(=O)c1ccc2cc(C#N)cnn12 [Compound A259] ; pIC50 = 6.00 to 7.00

Data point: CC(F)(F)c1cccc(C(=O)Nc2cn(-c3ccccc3)nc2C(=O)NC2CC2)n1 [Compound A265] ; pIC50 = 6.00 to 7.00

Data point: NC(=O)c1nc(-c2ccccc2)sc1NC(=O)c1cccc(C(F)(F)F)n1 [Compound A56] ; pIC50 = < 6.00

Data point: N#Cc1cnn2c(C(=O)Nc3cn(-c4ccccc4)nc3C(F)F)ccc2c1 [Compound A233] ; pIC50 = > 7.00
